assay: activity coefficient (dimensionless); of the first substance listed, at infinite dilution; xn = mol fraction of the nth substance listed; settings: 303.15 K; 101 kPa; Liquid; Chromatography; x1 = 0
attributeMeasured: activity coefficient

molecule: Cc1cccc(C)c1 [1,3-dimethylbenzene] + CCCCn1cc[n+](C)c1.F[B-](F)(F)F
activity coefficient: 5.25
--
molecule: Cc1ccccc1 [toluene] + CCCCn1cc[n+](C)c1.F[B-](F)(F)F
activity coefficient: 2.91
--
molecule: CCc1ccccc1 [ethylbenzene] + CCCCn1cc[n+](C)c1.F[B-](F)(F)F
activity coefficient: 5.61

1 = C1CCCCC1 [cyclohexane] + CCCCn1cc[n+](C)c1.F[B-](F)(F)F
2 = c1ccccc1 [benzene] + CCCCn1cc[n+](C)c1.F[B-](F)(F)F
[in] Which one would you say has the larger activity coefficient value: 1 , or 2 ? Which one? Tell me its label.
[out] 1
(1: 32.4, 2: 1.74)

P = CCCCCCCCC [nonane] + CCCCn1cc[n+](C)c1.F[B-](F)(F)F
Q = CCCCC [pentane] + CCCCn1cc[n+](C)c1.F[B-](F)(F)F
[in] Which one would you say has the larger activity coefficient value: P , or Q ? Which one? Tell me its label.
[out] P
(P: 224, Q: 40.7)

I = CCCCCCCC [octane] + CCCCn1cc[n+](C)c1.F[B-](F)(F)F
II = CC(C)CC(C)(C)C [2,2,4-trimethylpentane] + CCCCn1cc[n+](C)c1.F[B-](F)(F)F
[in] Would you kindly point out which of I and II has the smaller activity coefficient figure? Which one? Tell me its label.
[out] II
(II: 92.7, I: 139)

====

test: activity coefficient (dimensionless); of the first substance listed, at infinite dilution; xn = mol fraction of the nth substance listed; details: 313.15 K; 101 kPa; Liquid; Chromatography; x1 = 0
attributeMeasured: activity coefficient

compound: CCCCCCC [heptane] + CCCCn1cc[n+](C)c1.F[B-](F)(F)F
attributeMeasured: activity coefficient
reportedValue: 86.7
//
compound: Cc1ccccc1C [1,2-dimethylbenzene] + CCCCn1cc[n+](C)c1.F[B-](F)(F)F
attributeMeasured: activity coefficient
reportedValue: 4.18
//
compound: Cc1ccccc1 [toluene] + CCCCn1cc[n+](C)c1.F[B-](F)(F)F
attributeMeasured: activity coefficient
reportedValue: 2.94
//
compound: CCCCC [pentane] + CCCCn1cc[n+](C)c1.F[B-](F)(F)F
attributeMeasured: activity coefficient
reportedValue: 39.7
//
compound: CCCCCCCCCC [decane] + CCCCn1cc[n+](C)c1.F[B-](F)(F)F
attributeMeasured: activity coefficient
reportedValue: 335

I = C1CCCCC1 [cyclohexane] + CCCCn1cc[n+](C)c1.F[B-](F)(F)F
II = CC(C)CC(C)(C)C [2,2,4-trimethylpentane] + CCCCn1cc[n+](C)c1.F[B-](F)(F)F
[in] Which one would you say has the larger activity coefficient value: I , or II ? Which one? Tell me its label.
[out] II
(II: 88.6, I: 30.2)

I = CCc1ccccc1 [ethylbenzene] + CCCCn1cc[n+](C)c1.F[B-](F)(F)F
II = CC1CCCCC1 [methylcyclohexane] + CCCCn1cc[n+](C)c1.F[B-](F)(F)F
III = c1ccccc1 [benzene] + CCCCn1cc[n+](C)c1.F[B-](F)(F)F
IV = CCCCCCCCC [nonane] + CCCCn1cc[n+](C)c1.F[B-](F)(F)F
[in] # rank by activity coefficient, ascending (min first) Please respond by ranking the labels in the order requested.
[out] III, I, II, IV
(III: 1.76, I: 5.54, II: 45.6, IV: 193)

A = CCCCCC [hexane] + CCCCn1cc[n+](C)c1.F[B-](F)(F)F
B = C=Cc1ccccc1 [styrene] + CCCCn1cc[n+](C)c1.F[B-](F)(F)F
C = C1=CCCCC1 [cyclohexene] + CCCCn1cc[n+](C)c1.F[B-](F)(F)F
D = CCCCCCCC [octane] + CCCCn1cc[n+](C)c1.F[B-](F)(F)F
[in] # rank by activity coefficient, ascending (min first) Please respond by ranking the labels in the order requested.
[out] B, C, A, D
(B: 2.29, C: 13.5, A: 57.5, D: 136)

====

assay: activity coefficient (dimensionless); of the first substance listed, at infinite dilution; xn = mol fraction of the nth substance listed; conditions: 323.15 K; 101 kPa; Liquid; Chromatography; x1 = 0
attributeMeasured: activity coefficient

compound: C1=CCCCC1 [cyclohexene] + CCCCn1cc[n+](C)c1.F[B-](F)(F)F
activity coefficient: 12.9
--
compound: C1CCCCC1 [cyclohexane] + CCCCn1cc[n+](C)c1.F[B-](F)(F)F
activity coefficient: 28.3
--
compound: Cc1ccccc1 [toluene] + CCCCn1cc[n+](C)c1.F[B-](F)(F)F
activity coefficient: 2.95
--
compound: Cc1ccc(C)cc1 [1,4-dimethylbenzene] + CCCCn1cc[n+](C)c1.F[B-](F)(F)F
activity coefficient: 5.28

I = CCCCCCCCCC [decane] + CCCCn1cc[n+](C)c1.F[B-](F)(F)F
II = CCCCC [pentane] + CCCCn1cc[n+](C)c1.F[B-](F)(F)F
III = CCCCCCCCC [nonane] + CCCCn1cc[n+](C)c1.F[B-](F)(F)F
[in] # rank by activity coefficient, ascending (min first) Please respond by ranking the labels in the order requested.
[out] II, III, I
(II: 38.1, III: 187, I: 320)

====

assay: activity coefficient (dimensionless); of the first substance listed, at infinite dilution; xn = mol fraction of the nth substance listed; conditions: 323.15 K; 101 kPa; Liquid; Chromatography; x1 = 0
attributeMeasured: activity coefficient

compound: Cc1ccccc1C [1,2-dimethylbenzene] + CCCCn1cc[n+](C)c1.F[B-](F)(F)F
activity coefficient: 4.16

P = c1ccccc1 [benzene] + CCCCn1cc[n+](C)c1.F[B-](F)(F)F
Q = CCc1ccccc1 [ethylbenzene] + CCCCn1cc[n+](C)c1.F[B-](F)(F)F
[in] Which one would you say has the larger activity coefficient value: P , or Q ? Which one? Tell me its label.
[out] Q
